- test details: AUC (0 to infinity) in Sprague-Dawley rat at 1 mg/kg,iv and measured after 72 hrs by LC/MS/MS analysis
- Type: ADME, organism-based
- Set-up: time 72 hrs, dose 1 mg/kg, route iv
- details: Sprague-Dawley, in vivo
property measured: AUC(0-inf) (ng·h/mL)

CN1CCCC[C@@H](N(c2cc(C#CC(C)(C)C)sc2C(=O)O)C(=O)[C@H]2CC[C@H](C)CC2)C1=O; 1130

A = CN1CCCC[C@H](N(c2cc(C#CC(C)(C)C)sc2C(=O)O)C(=O)[C@H]2CC[C@H](C)CC2)C1=O
B = CN1CC[C@H](N(c2cc(C#CC(C)(C)C)sc2C(=O)O)C(=O)[C@H]2CC[C@H](C)CC2)C1=O
Which record would sort first by descending AUC(0-inf), A or B ? Refer to your chosen item by its label in the answer.
A
(A: 1480 ng·h/mL, B: 229 ng·h/mL)
